Hello, the source for this data is paper PMC4336329, in case you need it.

molecular target: human ether-à-go-go-related gene (hERG) potassium channel (human, UniProt Q12809); test: primary screen, population patch clamp on CHO cells stably expressing hERG; higher = less effect of the substance
Sequence (Q12809 whole entry, looked up): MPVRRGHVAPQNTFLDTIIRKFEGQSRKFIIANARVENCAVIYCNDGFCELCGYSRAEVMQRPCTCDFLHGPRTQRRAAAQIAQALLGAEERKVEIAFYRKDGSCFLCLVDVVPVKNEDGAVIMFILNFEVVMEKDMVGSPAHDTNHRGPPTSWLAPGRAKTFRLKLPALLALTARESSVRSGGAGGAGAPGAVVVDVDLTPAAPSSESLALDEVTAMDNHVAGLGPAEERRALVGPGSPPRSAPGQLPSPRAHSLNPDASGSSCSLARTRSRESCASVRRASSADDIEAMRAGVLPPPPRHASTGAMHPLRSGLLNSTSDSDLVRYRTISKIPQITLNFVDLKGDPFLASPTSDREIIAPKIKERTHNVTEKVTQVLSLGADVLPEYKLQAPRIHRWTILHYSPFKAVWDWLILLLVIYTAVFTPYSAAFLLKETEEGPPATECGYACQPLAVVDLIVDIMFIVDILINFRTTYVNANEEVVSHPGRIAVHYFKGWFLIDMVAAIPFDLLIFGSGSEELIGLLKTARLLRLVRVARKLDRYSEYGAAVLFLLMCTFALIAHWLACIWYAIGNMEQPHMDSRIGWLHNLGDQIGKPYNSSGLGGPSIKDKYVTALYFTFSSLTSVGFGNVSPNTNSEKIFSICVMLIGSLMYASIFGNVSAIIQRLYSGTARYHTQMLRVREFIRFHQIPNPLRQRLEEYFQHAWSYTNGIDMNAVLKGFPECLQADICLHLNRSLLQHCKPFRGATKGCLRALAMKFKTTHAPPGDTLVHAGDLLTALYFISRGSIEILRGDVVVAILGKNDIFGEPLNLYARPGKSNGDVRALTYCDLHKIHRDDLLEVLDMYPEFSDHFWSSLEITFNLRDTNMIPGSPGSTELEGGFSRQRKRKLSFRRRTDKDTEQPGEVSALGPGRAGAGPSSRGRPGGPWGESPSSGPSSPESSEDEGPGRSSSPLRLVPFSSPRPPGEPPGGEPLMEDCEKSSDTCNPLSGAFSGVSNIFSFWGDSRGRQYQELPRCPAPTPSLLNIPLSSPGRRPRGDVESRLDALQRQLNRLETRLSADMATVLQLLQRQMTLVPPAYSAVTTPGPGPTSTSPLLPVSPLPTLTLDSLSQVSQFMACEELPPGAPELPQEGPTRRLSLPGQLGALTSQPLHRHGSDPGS
Among all 310,000 compounds or so, about 2,200 (0.71%) showed an effect of 50% or more. Effects have a minus sign here. This excerpt belongs to a sample that is enriched for strong results.
// reported hERG current change (%, negative = inhibition) at 1uM per item
Endpoint name: hERG current change (%, negative = inhibition) at 1uM (%)

> print(dat)
                                    molecule  unit.name  measured.value
 1  CCOC(=O)C(CC)Sc1nc2c(c(=O)[nH]c(=O)n2C)n1C/C=C(/C)Cl (centres unmarked)          %           -56.9
 2  COc1ccc(NC(=O)CSc2nnc(-c3ccoc3C)n2CCc2ccccc2)cc1          %            1.36
 3       COc1ccc(C(=O)Nc2nnc(-c3cccs3)s2)cc1          %            18.6
 4  O=C(Nc1ccc(N2CCN(C(=O)c3cccs3)CC2)cc1)c1ccco1          %            17.4
 5  CCN1CCN(c2ncnc3sc(C(=O)Nc4ccccc4F)c(C)c23)CC1          %           -50.9
 6  O=C(CN1CCN(C(=O)c2cccs2)CC1)Nc1ccc(Br)cc1          %           -68.2
 7  O=C(CN(Cc1ccc(Br)cc1)S(=O)(=O)c1ccccc1)NCC1CCCO1 (centres unmarked)          %            11.8
 8             CCCCCc1nnc(NC(=O)C2=COCCO2)s1          %            6.91
 9  Cc1c(C(=O)Nc2c(F)cccc2F)sc2ncnc(N3CCN(c4ccccc4)CC3)c12          %            4.01
10  O=c1c2c3c(sc2n(CCN2CCOCC2)c(=O)n1Cc1ccco1)CCCCC3          %           -9.12
11  CCC(=O)Nc1ccc(N2CCN(C(=O)c3cccs3)CC2)cc1          %            3.02
12  CCOC(=O)C(CC)Sc1nc2c(c(=O)[nH]c(=O)n2C)n1CCc1ccccc1 (centres unmarked)          %           -30.9
13  O=C(Nc1ccc(N2CCN(C(=O)c3cccs3)CC2)cc1)c1ccc([N+](=O)[O-])o1          %           -15.8
14  COCCNC(=O)c1ccccc1NC(=O)c1ccccc1N(C)S(=O)(=O)c1ccc(C)cc1          %            8.36
15             Cc1ccc(NC(=O)CCc2ccc(C)o2)cc1          %            7.21
16  Cc1c(NC(=O)C(C)Oc2ccc(Br)cc2Cl)c(=O)n(-c2ccccc2)n1C (centres unmarked)          %           -1.81
17  CCN(CC)Cc1cc(NC2=NS(=O)(=O)c3ccccc32)ccc1OC(=O)C(C)C.Cl          %            5.53
18  CC1CCCCC1NC(=O)CN1C(=O)CSc2cc(S(=O)(=O)N3CCCCCC3)ccc21 (centres unmarked)          %             7.3
19  Cc1nnc(NC(=O)CSc2ccc(-c3ccc(Cl)cc3)nn2)s1          %            12.4
20   Cc1ccc2c(c1)N(CC(=O)Nc1ccccc1F)C(=O)CO2          %            17.1
